Molecular target: rat α1B-receptor subtype (Rattus norvegicus, UniProt P15823)
Sequence (P15823 whole entry): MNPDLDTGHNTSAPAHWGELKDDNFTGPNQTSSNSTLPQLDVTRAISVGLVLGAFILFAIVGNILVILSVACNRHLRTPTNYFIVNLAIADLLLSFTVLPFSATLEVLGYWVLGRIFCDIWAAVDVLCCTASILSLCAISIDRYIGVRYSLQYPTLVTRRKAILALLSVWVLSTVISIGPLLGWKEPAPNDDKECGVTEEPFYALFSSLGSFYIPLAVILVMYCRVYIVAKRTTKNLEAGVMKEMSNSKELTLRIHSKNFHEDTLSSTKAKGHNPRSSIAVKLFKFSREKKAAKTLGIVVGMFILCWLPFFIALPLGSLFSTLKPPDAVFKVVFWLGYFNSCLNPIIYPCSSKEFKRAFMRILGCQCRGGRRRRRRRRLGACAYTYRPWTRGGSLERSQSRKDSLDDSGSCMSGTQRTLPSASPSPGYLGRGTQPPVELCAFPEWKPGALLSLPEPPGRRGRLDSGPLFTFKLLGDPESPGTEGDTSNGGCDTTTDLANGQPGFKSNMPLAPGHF
Experiment: Competitive binding experiment against [³H] prazosin, transfected COS-7 cell membranes
Parameters: pcDV1Rα1B which contains a 2573 bp fragment containing the entire coding region of α1B receptor subtype cDNA; expressed in transfected cells; host or cells: COS-7 cells, transient expression, membrane preparation
reported property: pKi
// pKi: -log10(molar conc.)

Exercise: Which pKi is reported for this compound? CCOc1ccccc1OCCN[C@@H](C)Cc1ccc(OC)c(S(N)(=O)=O)c1 [Compound B]
Solution: 6.98

----------
Molecular target: bovine α1C-receptor subtype (Bos taurus, UniProt P18130)
Construct: pBCα1c which contains the entire coding region of bovine α1C receptor subtype; expressed in transfected cells; host or cells: COS-7 cells, transient expression, membrane preparation
Sequence (P18130 1-466): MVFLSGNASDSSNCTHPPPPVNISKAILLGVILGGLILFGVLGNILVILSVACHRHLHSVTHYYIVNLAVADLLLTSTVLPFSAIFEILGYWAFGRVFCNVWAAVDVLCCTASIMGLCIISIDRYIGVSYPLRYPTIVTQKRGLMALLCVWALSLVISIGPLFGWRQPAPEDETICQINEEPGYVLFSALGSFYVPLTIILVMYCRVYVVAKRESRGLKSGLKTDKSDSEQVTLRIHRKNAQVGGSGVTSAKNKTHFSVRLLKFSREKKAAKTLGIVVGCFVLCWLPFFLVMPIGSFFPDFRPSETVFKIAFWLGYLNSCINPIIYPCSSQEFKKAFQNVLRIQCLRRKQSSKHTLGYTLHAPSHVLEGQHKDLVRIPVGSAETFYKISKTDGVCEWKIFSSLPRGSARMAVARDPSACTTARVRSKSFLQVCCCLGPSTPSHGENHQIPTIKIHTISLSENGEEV
Assay: Competitive binding experiment against [³H] prazosin, transfected COS-7 cell membranes
reported property: pKi
Reminder that pKi is minus the log10 of a molar concentration.

Exercise: Report pKi for CCOc1ccccc1OCCN[C@H](C)Cc1ccc(OC)c(S(N)(=O)=O)c1 please.
Solution: 10.64
